Tested on: HIV-1 F227L + V106A double-mutant strain
assay.remarks: microbe, parasite or virus in culture
Assay type: cell-based
condition.set: Human immunodeficiency virus 1, MT4, read-out: EC50 F227L + V106A
parameter.measured: pEC50
Schema: pEC50 number; meaning minus log10 of the concentration expressed in molar units.

Problem: Need pEC50 of Cc1cc(C#N)cc(C)c1Oc1nc(Nc2ccc(C#N)cc2)nc(N)c1Br [ETR, Etravirine, reference compound] , thanks.
Result: 7.85

Problem: Need pEC50 of Cc1cc(-c2ccsc2)cc(C)c1Oc1nc(NC2CCN(Cc3ccc(S(N)(=O)=O)cc3)CC2)nc2ccsc12 [Compound 17] , thanks.
Result: 7.25

Problem: Need pEC50 of COc1ccc(-c2cc(C)c(Oc3nc(NC4CCN(Cc5ccc(C(N)=O)cc5)CC4)nc4ccsc34)c(C)c2)cc1 [Compound 22] , thanks.
Result: 6.53

Problem: Need pEC50 of Cc1cc(-c2cccc(C#N)c2)cc(C)c1Oc1nc(NC2CCN(Cc3ccc(C(N)=O)cc3)CC2)nc2ccsc12 [Compound 28] , thanks.
Result: 6.80

----------
System: HIV-1 RES056 (K103N + Y181C) double-mutant strain
assay.remarks: microbe, parasite or virus in culture
Type: cell-based
condition.set: CC50/EC50
parameter.measured: SI RES056
No unit in the answer, only the number.

Problem: Need SI RES056 of Cc1cc(-c2ccc(C#N)cc2)cc(C)c1Oc1nc(NC2CCN(Cc3ccc(C(N)=O)cc3)CC2)nc2ccsc12 , thanks.
Result: 44

Problem: Need SI RES056 of Cc1cc(-c2ccco2)cc(C)c1Oc1nc(NC2CCN(Cc3ccc(S(N)(=O)=O)cc3)CC2)nc2ccsc12 , thanks.
Result: 24

Problem: Need SI RES056 of Cc1cc(-c2ccsc2)cc(C)c1Oc1nc(NC2CCN(Cc3ccc(S(N)(=O)=O)cc3)CC2)nc2ccsc12 , thanks.
Result: 17

Problem: Need SI RES056 of Cc1cc(-c2ccoc2)cc(C)c1Oc1nc(NC2CCN(Cc3ccc(S(N)(=O)=O)cc3)CC2)nc2ccsc12 , thanks.
Result: 13

Problem: Need SI RES056 of Cc1cc(-c2cccc(N(C)C)c2)cc(C)c1Oc1nc(NC2CCN(Cc3ccc(S(N)(=O)=O)cc3)CC2)nc2ccsc12 , thanks.
Result: 4

Problem: Need SI RES056 of COc1ccc(-c2cc(C)c(Oc3nc(NC4CCN(Cc5ccc(S(N)(=O)=O)cc5)CC4)nc4ccsc34)c(C)c2)cc1 , thanks.
Result: 11

Problem: Need SI RES056 of Cc1cc(-c2ccc(F)cc2)cc(C)c1Oc1nc(NC2CCN(Cc3ccc(S(N)(=O)=O)cc3)CC2)nc2ccsc12 , thanks.
Result: 43

Problem: Need SI RES056 of COc1ccc(-c2cc(C)c(Oc3nc(NC4CCN(Cc5ccc(C(N)=O)cc5)CC4)nc4ccsc34)c(C)c2)cc1 , thanks.
Result: 12

Problem: Need SI RES056 of Cc1cc(-c2ccoc2)cc(C)c1Oc1nc(NC2CCN(Cc3ccc(C(N)=O)cc3)CC2)nc2ccsc12 , thanks.
Result: 19

Problem: Need SI RES056 of Cc1cc(-c2ccsc2)cc(C)c1Oc1nc(NC2CCN(Cc3ccc(C(N)=O)cc3)CC2)nc2ccsc12 , thanks.
Result: 4

Problem: Need SI RES056 of Cc1cc(-c2ccc(C#N)cc2)cc(C)c1Oc1nc(NC2CCN(Cc3ccc(S(N)(=O)=O)cc3)CC2)nc2ccsc12 , thanks.
Result: 51

Problem: Need SI RES056 of Cc1cc(-c2ccccc2)cc(C)c1Oc1nc(NC2CCN(Cc3ccc(S(N)(=O)=O)cc3)CC2)nc2ccsc12 , thanks.
Result: 12

Problem: Need SI RES056 of Cc1cc(-c2cccs2)cc(C)c1Oc1nc(NC2CCN(Cc3ccc(S(N)(=O)=O)cc3)CC2)nc2ccsc12 , thanks.
Result: 22
